Attribution: patent US20250197359A1

# TARGET_OR_SYSTEM: CB1 (UniProt P21554)
# PROTOCOL_NOTES: CB1 radioligand binding assay
# Design: species or system human
# MEASUREMENT_CONDITIONS: read-out: Ki (CB1)
READOUT_NAME: log10 Ki (log10 of the value in nM)

COMPOUND: C/C(N)=N\C(=N\S(=O)(=O)c1ccc(Cl)cc1)N1CCC(c2ccccc2)C(c2ccc(Cl)cc2)=N1 (stereo not drawn) [Compound 10a]
MEASUREMENT: 1.88
//
COMPOUND: CCN(CC)/C(N)=N/C(=N/S(=O)(=O)c1ccc(C(F)(F)F)cc1)N1CCC(c2ccccc2)C(c2ccc(Cl)cc2)=N1 (stereo not drawn) [Compound 18]
MEASUREMENT: 2.73
//
COMPOUND: N/C(=N\C(=N\S(=O)(=O)c1ccc(C(F)(F)F)cc1)N1CCC(c2ccccc2)C(c2ccc(Cl)cc2)=N1)C1CC1 (stereo not drawn) [Compound 10n]
MEASUREMENT: 1.64
//
COMPOUND: N/C(=N\C(=N\S(=O)(=O)c1ccc(C(F)(F)F)cc1)N1CCC(c2ccccc2)C(c2ccc(Cl)cc2)=N1)c1ccccn1 (stereo not drawn) [Compound 10v]
MEASUREMENT: 0.85
//
COMPOUND: CC(C)C(N/C(=N/S(=O)(=O)c1ccc(C(F)(F)F)cc1)N1CCC(c2ccccc2)C(c2ccc(Cl)cc2)=N1)C(N)=O (single isomer, unassigned) [Compound 29a]
MEASUREMENT: 1.12
//
COMPOUND: COc1ccc(S(=O)(=O)/N=C(/N=C(/N)[Se]C)N2CCC(c3ccccc3)C(c3ccc(Cl)cc3)=N2)cc1 (stereo not drawn) [Compound 12h]
MEASUREMENT: 3.04
//
COMPOUND: CC(C)C(N/C(=N/S(=O)(=O)c1ccc(C(F)(F)F)cc1)N1CCC(c2ccccc2)C(c2ccc(Cl)cc2)=N1)C(N)=O (single isomer, unassigned) [Compound 29b]
MEASUREMENT: 0.43
//
COMPOUND: CC(C)C(N/C(=N/S(=O)(=O)c1ccc(Cl)cc1)N1CCC(c2ccccc2)C(c2ccc(Cl)cc2)=N1)C(N)=O (single isomer, unassigned) [Compound 30b]
MEASUREMENT: 1.26
//
COMPOUND: NC(=O)C(Cc1ccccc1)N/C(=N/S(=O)(=O)c1ccc(C(F)(F)F)cc1)N1CCC(c2ccccc2)C(c2ccc(Cl)cc2)=N1 (single isomer, unassigned) [Compound 33a]
MEASUREMENT: 1.82
//
COMPOUND: C/C(N)=N\C(=N\S(=O)(=O)c1ccc2ccccc2c1)N1CCC(c2ccccc2)C(c2ccc(Cl)cc2)=N1 (stereo not drawn) [Compound 10f]
MEASUREMENT: 1.50
//
COMPOUND: C/C(N)=N\C(=N\S(=O)(=O)c1cccc(C(F)(F)F)c1)N1CCC(c2ccccc2)C(c2ccc(Cl)cc2)=N1 (stereo not drawn) [Compound 10c]
MEASUREMENT: 1.45
//
COMPOUND: C[Se]/C(N)=N\C(=N\S(=O)(=O)c1ccc(OC(F)(F)F)cc1)N1CCC(c2ccccc2)C(c2ccc(Cl)cc2)=N1 (stereo not drawn) [Compound 12d]
MEASUREMENT: 2.29

* * *

# TARGET_OR_SYSTEM: UniProt P21554
# PROTOCOL_NOTES: CB1 radioligand binding assay
# Parameters: species or system human
# MEASUREMENT_CONDITIONS: read-out: Ki (CB1)
pKi: −log10 of the molar value.

MOLECULE: N/C(=N\C(=N\S(=O)(=O)c1ccc(C(F)(F)F)cc1)N1CCC(c2ccccc2)C(c2ccc(Cl)cc2)=N1)c1ccc(F)cc1F (stereo not drawn) [Compound 10p]
pKi: 8.02
--
MOLECULE: CS/C(N)=N\C(=N\S(=O)(=O)c1ccc(C(F)(F)F)cc1)N1CCC(c2ccccc2)C(c2ccc(Cl)cc2)=N1 (stereo not drawn) [Compound 11b]
pKi: 7.06
--
MOLECULE: NC(=O)C(Cc1ccccc1)N/C(=N/S(=O)(=O)c1ccc(C(F)(F)F)cc1)N1CCC(c2ccccc2)C(c2ccc(Cl)cc2)=N1 (single isomer, unassigned) [Compound 33b]
pKi: 8.21

* * *

# PROTOCOL_NOTES: Caco-2 permeability (A-B and B-A)
# Assay type: in vitro ADME
# MEASUREMENT_CONDITIONS: human, Caco-2, mean; read-out: Papp (BA), 10^−6 cm/s, Mean

MOLECULE: N/C(=N\C(=N\S(=O)(=O)c1ccc(C(F)(F)F)cc1)N1CCC(c2ccccc2)C(c2ccc(Cl)cc2)=N1)c1ccc(F)cc1F (stereo not shown) [Compound 10p]
QUANTITY_UNIT: ×10⁻⁶ cm/s
Papp B→A: 0.6
//
MOLECULE: CC(C)(C)/C(N)=N/C(=N/S(=O)(=O)c1ccc(C(F)(F)F)cc1)N1CCC(c2ccccc2)C(c2ccc(Cl)cc2)=N1 (stereo not shown) [Compound 10o]
QUANTITY_UNIT: ×10⁻⁶ cm/s
Papp B→A: 0.5
//
MOLECULE: CC(C)C(N/C(=N/S(=O)(=O)c1ccc(C(F)(F)F)cc1)N1CCC(c2ccccc2)C(c2ccc(Cl)cc2)=N1)C(N)=O (single isomer, unassigned) [Compound 29b]
QUANTITY_UNIT: ×10⁻⁶ cm/s
Papp B→A: 0.3
//
MOLECULE: C/C(N)=N\C(=N\S(=O)(=O)c1ccc(C(F)(F)F)cc1)N1CCC(c2ccccc2)C(c2ccc(Cl)cc2)=N1 (stereo not shown) [Compound 10b]
QUANTITY_UNIT: ×10⁻⁶ cm/s
Papp B→A: 1.9

* * *

# PROTOCOL_NOTES: Caco-2 permeability (A-B and B-A)
# Assay type: in vitro ADME
# MEASUREMENT_CONDITIONS: human, Caco-2, replicate 2; read-out: Papp (AB), 10^−6 cm/s, 2
Form field: Papp A→B (one value per entry).
READOUT_NAME: Papp A→B (×10⁻⁶ cm/s)

COMPOUND: CC(C)C(N/C(=N/S(=O)(=O)c1ccc(C(F)(F)F)cc1)N1CCC(c2ccccc2)C(c2ccc(Cl)cc2)=N1)C(N)=O (single isomer, unassigned) [Compound 29b]
MEASUREMENT: 1
//
COMPOUND: C/C(N)=N\C(=N\S(=O)(=O)c1ccc(C(F)(F)F)cc1)N1CCC(c2ccccc2)C(c2ccc(Cl)cc2)=N1 (stereo not shown) [Compound 10b]
MEASUREMENT: 2.5
//
COMPOUND: CC(C)(C)/C(N)=N/C(=N/S(=O)(=O)c1ccc(C(F)(F)F)cc1)N1CCC(c2ccccc2)C(c2ccc(Cl)cc2)=N1 (stereo not shown) [Compound 10o]
MEASUREMENT: 2.4
//
COMPOUND: N/C(=N\C(=N\S(=O)(=O)c1ccc(C(F)(F)F)cc1)N1CCC(c2ccccc2)C(c2ccc(Cl)cc2)=N1)c1ccc(F)cc1F (stereo not shown) [Compound 10p]
MEASUREMENT: 1.3

* * *

Form field: IC50 (one value per entry).
# TARGET_OR_SYSTEM: Brain/CB1 (Mus musculus)
# Sequence (P47746 whole entry): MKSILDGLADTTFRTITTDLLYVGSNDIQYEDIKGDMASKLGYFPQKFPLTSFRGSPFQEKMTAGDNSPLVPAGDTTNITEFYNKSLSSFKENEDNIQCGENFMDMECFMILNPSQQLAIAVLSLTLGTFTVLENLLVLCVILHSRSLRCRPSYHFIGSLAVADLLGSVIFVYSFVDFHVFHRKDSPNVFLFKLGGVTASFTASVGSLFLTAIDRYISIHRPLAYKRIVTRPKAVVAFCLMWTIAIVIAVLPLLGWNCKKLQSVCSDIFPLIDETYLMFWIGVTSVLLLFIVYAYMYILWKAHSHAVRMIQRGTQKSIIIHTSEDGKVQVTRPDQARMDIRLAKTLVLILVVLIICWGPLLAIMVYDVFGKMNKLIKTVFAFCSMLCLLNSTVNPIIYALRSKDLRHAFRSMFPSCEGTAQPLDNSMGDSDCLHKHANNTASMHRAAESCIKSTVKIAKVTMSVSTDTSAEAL
# PROTOCOL_NOTES: Functional GTPγS binding, Brain/CB1

MOLECULE: CC(C)C(N/C(=N/S(=O)(=O)c1ccccc1)N1CCC(c2ccccc2)C(c2ccc(Cl)cc2)=N1)C(N)=O (single isomer, unassigned) [Compound 28a]
TARGET_OR_SYSTEM: Brain/CB1 (Mus musculus)
IC50: > 1000 nM
//
MOLECULE: CS/C(N)=N/C(=N/S(=O)(=O)c1ccc(C(F)(F)F)cc1)N1CCC(c2ccccc2)C(c2ccc(F)cc2)=N1 (centres unmarked) [Compound 11j]
TARGET_OR_SYSTEM: Brain/CB1 (Mus musculus)
IC50: > 1000 nM
//
MOLECULE: CC(C)C(N/C(=N/S(=O)(=O)c1ccc(C(F)(F)F)cc1)N1CCC(c2ccccc2)C(c2ccc(Br)cc2)=N1)C(N)=O (single isomer, unassigned) [Compound 26a]
TARGET_OR_SYSTEM: Brain/CB1 (Mus musculus)
IC50: > 1000 nM
//
MOLECULE: CC(C)C(N/C(=N/S(=O)(=O)c1ccc(Cl)cc1)N1CCC(c2ccccc2)C(c2ccc(Cl)cc2)=N1)C(N)=O (single isomer, unassigned) [Compound 30b]
TARGET_OR_SYSTEM: Brain/CB1 (Mus musculus)
IC50: 39 nM
//
MOLECULE: C/C(N)=N\C(=N\S(=O)(=O)c1ccc(OC(F)(F)F)cc1)N1CCC(c2ccccc2)C(c2ccc(Cl)cc2)=N1 (centres unmarked) [Compound 10d]
TARGET_OR_SYSTEM: Brain/CB1 (Mus musculus)
IC50: 104 nM
//
MOLECULE: C/C(N)=N\C(=N\S(=O)(=O)c1ccc(I)cc1)N1CCC(c2ccccc2)C(c2ccc(Cl)cc2)=N1 (centres unmarked) [Compound 10i]
TARGET_OR_SYSTEM: Brain/CB1 (Mus musculus)
IC50: 118 nM
//
MOLECULE: CC(N/C(=N/S(=O)(=O)c1ccc(C(F)(F)F)cc1)N1CCC(c2ccccc2)C(c2ccc(Cl)cc2)=N1)C(N)=O (single isomer, unassigned) [Compound 31b]
TARGET_OR_SYSTEM: Brain/CB1 (Mus musculus)
IC50: 33 nM
//
MOLECULE: NC(=O)CN/C(=N/S(=O)(=O)c1ccc(C(F)(F)F)cc1)N1CCC(c2ccccc2)C(c2ccc(Cl)cc2)=N1 (centres unmarked)
TARGET_OR_SYSTEM: Brain/CB1 (Mus musculus)
IC50: 33 nM
